# Tested on: K-562 leukemia
# experimental-protocol: NCI tumour cell line growth inhibition, 48 h
Tick Yes if TGI is 30 µM or greater. Tick No if TGI is less than 30 µM.

input: I'd appreciate it if you could say whether COC(=O)C1CCC(N2C(=O)CCC2C(=O)OC)=N1 (centres undefined) has TGI at least equal to 30 µM.
output: Yes

input: I'd appreciate it if you could say whether COc1ccc2nc(C3=CN(C4OC(CO)C(O)C(O)C4O)C4C=CC=CC34)sc2c1 (centres undefined) has TGI at least equal to 30 µM.
output: Yes

* * *

Let's look at some compounds and their measured TGI.
# Test system: NCI-H226 lung
# experimental-protocol: NCI tumour cell line growth inhibition, 48 h
# number only, unit µM dropped from output

// known answers, use as guide
compound	observation-type	measured-value
CC1=NN(c2cccc(Cl)c2)C2(C1)SCC(=O)N2c1nc2ccccc2s1 (centres undefined)	TGI	37.1
Cc1[nH]ccc2cc3nc4ccccc4c3cc12	TGI	12.6
COc1ccc(CC(C#N)c2cc(OC)c(OC)c(OC)c2)cc1 (centres undefined)	TGI	14.3

Now let's try a different one.
input: Request the reported TGI associated with C[C@@]1(CBr)C[C@@](C)(/C=C/Cl)[C@@H](Cl)C[C@H]1Cl
output: 26.1

* * *

# Tested on: SF-539 CNS
# experimental-protocol: NCI tumour cell line growth inhibition, 48 h
observation-type: TGI

// known answers, use as guide
compound	experimental-target	TGI
CC1(C)C(C(=O)OC(C#N)c2cccc(OCC(=O)OCc3ccccc3)c2)C1(C)C (stereo not drawn)	SF-539 CNS	> 100 µM
CN(Cc1ccccc1)c1nc(=[N+](C)C)ss1	SF-539 CNS	> 100 µM

input: Request the reported TGI associated with O=C(OCc1c(-c2ccccc2)nn(-c2ccccc2)c1COC(=O)Oc1ccccc1)Oc1ccccc1
output: > 100 µM

* * *

# Test system: SNB-78 CNS
# experimental-protocol: NCI tumour cell line growth inhibition, 48 h
Let's look at some compounds and their measured TGI.

// known answers, use as guide
smiles-repr	TGI
Cc1ccc(C(=O)NC(C)C)cc1N=NN(C)C	> 100 µM
COC(=O)C[C@](O)(CCC(C)(C)O)C(=O)O[C@@H]1C(OC)=C[C@]23CCCN2CCc2cc4c(cc2[C@H]13)OCO4	1.04 µM

Now let's try a different one.
input: Request the reported TGI associated with O=C(Cc1nc2ccccc2s1)C(=O)Nc1ccc(Cl)cc1Cl
output: > 100 µM

* * *

# System: NCI-H226 lung
# experimental-protocol: NCI tumour cell line growth inhibition, 48 h
Let's look at some molecules and their measured TGI.

// known answers, use as guide
molecule	TGI
CC(=O)OC1C/C(C)=C/[C@H](O)CC(C)/C=C/[C@@]2(C)CCC(C(C)(C)O)C12 (stereo not given in full)	> 100 µM
COC(=O)C1=C2CO[C@@H]3C[C@H]4C(C)(C)CCC[C@]4(C)C(=CC1)[C@]23C	> 100 µM
CN(C)S(=O)(=O)c1cccc(-c2nc3sc4c(c3c(=O)[nH]2)CCCC4)c1	> 100 µM
CC(C)(CO)NC(=O)c1cccc(C(=O)NC(C)(C)CO)c1Br	> 100 µM

input: Request the reported TGI associated with CN(Cc1ccccc1)c1nc(=[N+](C)C)ss1
output: > 100 µM

input: Request the reported TGI associated with CN(C)C(=S)/N=c1\ssc(=S)n1Cc1ccccn1
output: > 100 µM

input: Request the reported TGI associated with O=C(Nc1ccc([N+](=O)[O-])cc1)c1cc2ccccc2cc1O
output: 5.37 µM

input: Request the reported TGI associated with CCOC(=O)C1CCn2c(nc3c(=O)n(C)c(=O)n(C)c32)S1 (stereo not given)
output: > 100 µM

input: Request the reported TGI associated with Nc1nc(SCc2ccccc2[N+](=O)[O-])c2[nH]cnc2n1
output: 97.5 µM

input: Request the reported TGI associated with CCOC(=O)c1cn2ncnc(Oc3ccc(NC(=O)NCCN(CC)CC)c(Cl)c3)c2c1C
output: > 100 µM

* * *

# Test system: MALME-3M melanoma
# experimental-protocol: NCI tumour cell line growth inhibition, 48 h
Let's look at some molecules and their measured TGI.

// known answers, use as guide
molecule	TGI
CC1=NN(c2cccc(Cl)c2)C2(C1)SCC(=O)N2c1nc2ccccc2s1 (stereo not drawn)	> 100 µM
CC(=O)[CH-]C(=O)c1ccccc1.CC(=O)[CH-]C(=O)c1ccccc1.CC[O-].O=C1C=C([O-])C(=O)c2ccccc21.[Ti+4]	> 100 µM

Now let's try a different one.
input: Request the reported TGI associated with O=C(NN1C(=O)C(Cl)C1c1ccc([N+](=O)[O-])cc1)c1ccccc1O (stereo not drawn)
output: > 100 µM

* * *

# System: SN12C renal
# experimental-protocol: NCI tumour cell line growth inhibition, 48 h
observation-type: TGI

// known answers, use as guide
molecule	TGI
CN(C)CCC(=O)NCc1c2nc3ccccc3nc2n2ccccc12	> 100 µM
[N-]=[N+]=NC(c1cn(C2CC(O)C(CO)O2)c(=O)[nH]c1=O)C(I)I (stereo not drawn)	> 100 µM

Now let's try a different one.
input: Request the reported TGI associated with CN(C)NC(=S)NC12CC3CC(CC(C3)C1)C2
output: > 100 µM

* * *

# Test system: SK-MEL-2 melanoma
# experimental-protocol: NCI tumour cell line growth inhibition, 48 h
Let's look at some compounds and their measured TGI.

input: TGI of COC(=O)C1CCC(N2C(=O)CCC2C(=O)OC)=N1 (stereo not drawn) on SK-MEL-2 melanoma?
output: > 100 µM

input: TGI of COC(=O)C(C(=O)C(=O)Nc1ccc(C)cc1C)c1nc2ccc([N+](=O)[O-])cc2[nH]c1=O (stereo not drawn) on SK-MEL-2 melanoma?
output: > 100 µM

input: TGI of COc1cc(/C=N/O)nc(-c2ccccn2)c1 on SK-MEL-2 melanoma?
output: > 100 µM

* * *

# Tested on: MDA-MB-231 breast
# experimental-protocol: NCI tumour cell line growth inhibition, 48 h
Where a SMILES comes first, the peptide text is derived from it. [ ]: non-standard residue; d: D form. The star is where a group is joined. X28 = COC1=CC(=O)N(C(=O)[C@@H](O*)C(C)C)[C@H]1Cc1ccccc1; NMeL = CN[C@@H](CC(C)C)C(=O)O; Cbz = O=C(OCc1ccccc1)*
observation-type: TGI

compound	TGI
Cc1ccc(C(=O)Nc2ccccc2C(=O)N/N=C(\c2ccccc2)c2ccccn2)cc1	> 100 µM
Cc1[nH]ccc2cc3nc4ccccc4c3cc12	8.24 µM
COC1=CC(=O)N(C(=O)[C@@H](OC(=O)[C@@H]2CCCN2C(=O)[C@@H]2CCCN2C(=O)[C@H](CC(C)C)N(C)C(=O)[C@@H](NC(=O)[C@@H](NC(=O)OCc2ccccc2)C(C)C)C(C)C)C(C)C)[C@H]1Cc1ccccc1 (Cbz-VV[NMeL]PP-X28)	61.9 µM
Nc1nc(SCc2ccccc2[N+](=O)[O-])c2[nH]cnc2n1	> 100 µM
OC(C1CCCC1=N/N=C1/CCCC1C(O)(C(F)(F)Cl)C(F)(F)Cl)(C(F)(F)Cl)C(F)(F)Cl (stereo not drawn)	> 10 µM

Now let's try a different one.
input: Request the reported TGI associated with OC1NC2CC3NC(O)C(O)NC3CC2NC1O (stereo not drawn)
output: > 100 µM

* * *

# Test system: HOP-62 NSCLC
# experimental-protocol: NCI tumour cell line growth inhibition, 48 h
Let's look at some compounds and their measured TGI.

// known answers, use as guide
compound	TGI
Cc1ccc(N2C(=O)C(O)=C(C(=O)C(C)(C)C)C2c2ccc([N+](=O)[O-])cc2)cc1 (centres undefined)	49.2 µM
CCCCCCCCCCOC1C(C(C)OCCCN(C)C)OC2OC3(CCCCC3)OC21 (centres undefined)	31.4 µM
COc1cc2c(cc1-c1c(C)noc1C)ncc1[nH]c(=O)n([C@H](C)c3ccccn3)c12	> 100 µM
CCN1CCC(O)(c2ccc(Cl)c(Cl)c2)C(C(=O)c2ccc(Cl)c(Cl)c2)C1 (centres undefined)	33.9 µM
NC(=O)C12CCC1C1CCCCC12N1CCOCC1 (centres undefined)	> 100 µM
O=C(O)C1C2CCC(C2)C1c1ccccc1 (centres undefined)	> 100 µM
CN(C(=O)C1CC1)C1C2CN3CCC(O2)C13 (centres undefined)	> 100 µM
CC(=O)O[C@@H]1CC2[C@@H](CCC3Cc4nc5c(nc4C[C@@]32C)CC2CC[C@@H]3C(CC[C@@]4(C)C3CC[C@@H]4C(C)CCCC(C)C)[C@@]2(C)C5)C2C[C@@H]3OC4(CCC(C)CO4)C(C)[C@@H]3[C@]21C (some centres undefined)	> 100 µM

input: Request the reported TGI associated with CNC(=O)C(NC(=O)[C@H](CC(C)C)NC(=O)[C@@H](S)CCN1C(=O)N(C)C(C)(C)C1=O)C(C)(C)C (some centres undefined)
output: > 100 µM

input: Request the reported TGI associated with CCOC(CN(C)C(=O)OCC(Cl)(Cl)Cl)OCC
output: > 100 µM

input: Request the reported TGI associated with NC(=O)N/N=C1/CCCC/C1=C\c1ccccc1
output: > 100 µM

input: Request the reported TGI associated with O=C1/C(=C/c2ccc(C(F)(F)F)cc2)COc2ccc(O)cc21
output: 25.4 µM

input: Request the reported TGI associated with COc1cc(C(c2cc(OC)c(OC)c(OC)c2)N2C(=O)CCC2C(=O)O)cc(OC)c1OC (centres undefined)
output: > 100 µM

input: Request the reported TGI associated with CC(=N\N=C\c1ccccn1)/C(C)=N/N=C/c1ccccn1
output: > 100 µM
